assay: qHTS of pediatric cancer cell lines to identify multiple opportunities for drug repurposing: Primary screen for Rh18 cells (AID 1347102); settings: Rh18 rhabdomyosarcoma viability, CellTiter-Glo luminescence, 48 h; series mostly up to 46 µM; note: nearly all actives have a fitted effect of over 65% in size; note: potency is the fitted concentration of half-maximal effect
Results filed as inconclusive are left out. Calls of active or inactive are those of the source. Calls come from the whole dose curve; as a rule, active = well fitted cell-killing curve with a large enough effect; inconclusive = small, poorly fitted or top-dose-only effect; inactive = flat fitted curve, though single readings scatter.
metric: Potency

Example results:
compound: CCNC(=O)c1cc2c(-c3cc(OCCN4CCCC4)c(Cl)cc3Cl)nc(N)nc2s1
Potency: 4.69 µM (active)
--
compound: N=c1ccn2c(n1)O[C@H]1[C@@H](O)[C@@H](CO)O[C@H]12
Potency: inactive
--
compound: Cc1cc(O)c2c(c1)C(=O)c1cccc(O)c1C2=O
Potency: inactive
--
compound: CN(C)CC[C@H](c1ccc(Cl)cc1)c1ccccn1
Potency: inactive
--
compound: CC(=O)OC[C@@H]1O[C@@H](n2ccc(=O)[nH]c2=O)[C@H](OC(C)=O)[C@H]1OC(C)=O
Potency: inactive
--
compound: CCN(CC)CCNC(=O)c1c(C)[nH]c(C=C2C(=O)Nc3ccc(F)cc32)c1C
Potency: 17.1 µM (active)

Request: Record request: Potency value, item CN1CCCN(C(=O)c2cccc(-c3ccc(C=C4C(=O)Nc5ccc(Cl)cc54)o3)c2)CC1
Result: 7.43 µM (active)

Request: Can you share its Potency? I mean this compound: Nc1cccc2c1C(=O)N(C1CCC(=O)NC1=O)C2=O (stereo not given)
Result: inactive

Request: Which Potency reading was recorded for the compound C[C@@H]1C(=O)O[C@H]2CC34[C@H]5C[C@@H](C(C)(C)C)C36[C@H](OC(=O)[C@@H]6O)O[C@@]4(C(=O)O5)[C@]21O (stereo not given in full) ?
Result: inactive

Request: Param item = CCS(=O)(=O)Nc1ccc2[nH]c(O)c(C(=Nc3ccc(CN4CCCCC4)cc3)c3ccccc3)c2c1 ; retrieve measured Potency.
Result: 4.18 µM (active)

Request: I am curious: what Potency value has been reported for Nc1ccn(C2CO[C@H](CO)O2)c(=O)n1 (stereo not given in full) ?
Result: inactive

Request: Query (compound): COc1cc(OC)c(NC(=O)Nc2cc(C)on2)cc1Cl ; field requested: Potency
Result: inactive

Request: State the recorded Potency for this entry: COC[C@H](NC(=O)c1cnc(C)s1)C(=O)N[C@@H](COC)C(=O)N[C@@H](Cc1ccccc1)C(=O)[C@@]1(C)CO1
Result: 0.187 µM (active)

Request: I am curious: what Potency value has been reported for O=C(O)C=Cc1ccc(Cn2ccnc2)cc1 ?
Result: inactive

Request: Which Potency is reported for this compound? CN1CCc2c(c3ccccc3n2Cc2ccc(C(=O)NO)cc2)C1
Result: 18.7 µM (active)

Request: # get_value(readout='Potency', item= C[C@H](NCc1ccc2c(c1)nc(NC(=O)c1ccc(-c3cn[nH]c3)s1)n2CCc1ccccc1)C(C)(C)C )
Result: 2.96 µM (active)

Request: Need Potency, item CCCc1nc(C(C)(C)O)c(C(=O)O)n1Cc1ccc(-c2ccccc2-c2nn[nH]n2)cc1
Result: inactive

====

experiment: Quantitative High-Throughput drug screen in 47 multiple myeloma cell lines against the NCATS MIPE library collection: RPMI8226_ATCC cell viability assay (AID 1919871); conditions: RPMI8226 myeloma viability, CellTiter-Glo ATP luminescence, 48 h; series mostly up to 45.8 µM; note: nearly all actives have a fitted effect of over 30% in size
Inconclusive results are not listed. Activity calls are given as the source filed them. Calls follow the shape of the dose curve; as a rule, active = well fitted cell-killing curve with a large enough effect; inconclusive = small, poorly fitted or top-dose-only effect, or effect the other way; inactive = no such curve, though single readings can be large or run the other way.
Can you answer with just one of these options? yes (active), no (inactive)

Request: For this molecule, state the assay outcome: COC(=O)[C@@H]1CC2=CC(=O)CC[C@]2(C)[C@@]23O[C@@H]2C[C@@]2(C)[C@H](CC[C@@]24CCC(=O)O4)[C@@H]13
Result: no

Request: Please state the recorded outcome for this molecule: COc1cc(OC)c(C=CS(=O)(=O)Cc2ccc(OC)c(NCC(=O)O)c2)c(OC)c1
Result: yes

Request: Which outcome was entered for the molecule C[C@@H](Oc1ccc2[nH]nc(C=Cc3cnn(CCO)c3)c2c1)c1c(Cl)cncc1Cl in this test?
Result: yes

Request: Assay outcome for COc1cc(C(C)C)c(Oc2cnc(NC(CO)CO)nc2N)cc1I : what was it?
Result: yes

Request: How did this test come out for Cn1cc(C2=C(c3c4n(c5ccccc35)CCC(CN)C4)C(=O)NC2=O)c2ccccc21 (centres undefined) ?
Result: yes

Request: Could you kindly confirm the outcome this assay logged for CC(C)[C@H](CO)Nc1nc(Nc2cccc(Cl)c2)c2ncn(C(C)C)c2n1 ?
Result: yes

Request: Hi, do you know how CC(=O)N[C@@H]1[C@H](O[C@@H]2c3ccc(c(Cl)c3)Oc3cc4cc(c3O[C@H]3O[C@H](CO)[C@@H](O)[C@H](O)[C@H]3NC(=O)CCCCCCCC(C)C)Oc3ccc(cc3Cl)C[C@H]3NC(=O)[C@H](N)c5ccc(O)c(c5)Oc5cc(O)cc(c5)[C@H](NC3=O)C(=O)N[C@H]4C(=O)N[C@H]3C(=O)N[C@@H]2C(=O)N[C@@H](C(=O)O)c2cc(O)cc(O[C@H]4O[C@H](CO)[C@@H](O)[C@H](O)[C@H]4O)c2-c2cc3ccc2O)O[C@H](CO)[C@@H](O)[C@@H]1O came out in this test?
Result: no

Request: Please state the recorded outcome for this molecule: CC(N[C@H]1CCCC[C@H]1NC(=O)c1ccc(Cl)cc1)c1cccc2ccccc12 (some centres undefined)
Result: no

Request: Dear colleague, could you share the recorded outcome for O=C1CSC(=O)N1C(CCc1ccncc1)COc1ccc(-c2cccc([N+](=O)[O-])c2)cc1 (centres undefined) when you have a moment?
Result: yes

====

assay: qHTS of pediatric cancer cell lines to identify multiple opportunities for drug repurposing: Confirmatory screen for Rh18 cells (AID 1347125); details: Rh18 rhabdomyosarcoma cells, viability; series mostly up to 45.9 µM;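 note: cells exposed to compound for 48 h; nearly all actives have a fitted effect of over 55% in size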
Results filed as inconclusive are left out. Calls of active or inactive are those of the source. Calls follow the shape of the dose curve; as a rule, active = well fitted cell-killing curve with a large enough effect; inconclusive = small, poorly fitted or top-dose-only effect, or effect the other way; inactive = flat fitted curve, though single readings scatter.
Hello, when you answer, please use one of the following outcomes: True for active, False for inactive

Request: Which result was noted for this molecule in the test: COc1cc(OC)c(C=CS(=O)(=O)Cc2ccc(OC)c(NCC(=O)O)c2)c(OC)c1
Result: False

Request: Kindly provide the recorded test outcome for the following molecule: C[C@H](NCc1ccc2c(c1)nc(NC(=O)c1ccc(-c3cn[nH]c3)s1)n2CCc1ccccc1)C(C)(C)C
Result: True

Request: Hello, I am checking results. What call was entered for O=C(C=Cc1ccc(CN(CCO)CCc2c[nH]c3ccccc23)cc1)NO ?
Result: True

Request: Check the results log: what was the call for C=C1C(=CC=C2CCC[C@]3(C)[C@@H]([C@H](C)CCCC(C)(C)O)CC[C@@H]23)C[C@@H](O)C[C@@H]1O ?
Result: False

Request: Given COc1ccc2c(c1OC)C(=O)OC2[C@H]1c2c(cc3c(c2OC)OCO3)CCN1C (some centres not stated) , state the outcome it received in this test.
Result: False

Request: Called result for CC(C)(N)c1ccc(-c2nc3ccccc3nc2-c2ccccc2)cc1
Result: True

Request: Recorded test outcome, item COC(=O)C=CC(=O)OC
Result: True

Request: For this molecule, state the assay outcome: Cc1cc(Nc2ncc3c(n2)N(C)C(=O)N(c2cc(NC(=O)c4cccc(C(F)(F)F)c4)ccc2C)C3)n(C)n1
Result: True

Request: Outcome? Cc1nc(NC(=O)N2CCC[C@@H]2C(N)=O)sc1-c1ccnc(C(C)(C)C(F)(F)F)c1
Result: True

Request: Outcome logged for O=C(NC1CC1)c1cccc(-c2ccc3c(NC(=O)C4CC4)n[nH]c3c2)c1 in this assay:
Result: False

Request: Give the logged outcome of this assay for the following molecule: CC(=O)O[C@H]1C[C@@H]2CC[C@H]3[C@H]4C[C@H]([N+]5(C)CCCCC5)[C@@H](OC(C)=O)[C@@]4(C)CC[C@@H]3[C@@]2(C)C[C@H]1N1CCCCC1
Result: True

Request: Fill in: this test's call for O=C(Nc1cc2cc[nH]c2cn1)c1ccccc1 is ___
Result: True

Request: Tell me the assay call for COc1cccc2c1C(=O)c1c(O)c3c(c(O)c1C2=O)C[C@@](O)(C(=O)CO)C[C@H]3O[C@H]1C[C@H](N)[C@H](O)[C@H](C)O1 please.
Result: True

Request: How did this test come out for CO[C@@H]1[C@@H](O)[C@H](O)[C@@H](n2c3c(Cl)cccc3c3c4c(c5c6cccc(Cl)c6[nH]c5c32)C(=O)NC4=O)O[C@@H]1CO ?
Result: True

Request: State the result this test recorded for COc1ccc(Nc2cc(-c3cnc(N)nc3)nc(N3CCOCC3)n2)cn1 .
Result: True

Request: For CC(=O)[C@]1(O)Cc2c(O)c3c(c(O)c2[C@@H](O[C@H]2C[C@H](N)[C@@H](O)[C@H](C)O2)C1)C(=O)c1ccccc1C3=O , what call appears in the results of this test?
Result: True

Request: Please indicate how the test categorized O=C(O)C[C@H](O)C[C@H](O)C=Cc1c(C2CC2)nc2ccccc2c1-c1ccc(F)cc1 .
Result: True

Request: Tell me the recorded outcome of this test for CCc1cc(C(C)=NOCc2ccc(C3CCCCC3)c(C(F)(F)F)c2)ccc1CN1CC(C(=O)O)C1 .
Result: False

Request: Fill in: this test's call for COC[C@H](NC(=O)c1cnc(C)s1)C(=O)N[C@@H](COC)C(=O)N[C@@H](Cc1ccccc1)C(=O)[C@@]1(C)CO1 is ___
Result: True

Request: // param item: O=S(=O)(O)CCSSCCS(=O)(=O)O ; yields the recorded call
Result: False

Request: # outcome recorded in this test, key = Cn1c(Nc2ccc(C(F)(F)F)cc2)nc2cc(Oc3ccnc(-c4ncc(C(F)(F)F)[nH]4)c3)ccc21
Result: False

Request: // return assay outcome for CC[C@]12C=CCN3CC[C@@]4(c5cc([C@@]6(C(=O)OC)C[C@H]7C[C@@H](C(C)(F)F)CN(Cc8c6[nH]c6ccccc86)C7)c(OC)cc5N(C)[C@H]4[C@@](O)(C(=O)OC)[C@H]1OC(C)=O)[C@@H]32
Result: False

Request: Which result was noted for this molecule in the test: NS(=O)(=O)OC[C@@H]1C[C@@H](n2ccc3c(N[C@H]4CCc5ccccc54)ncnc32)C[C@H]1O
Result: False

Request: What outcome does the record of this test show for CCCCC(=O)O[C@]1(C(=O)CO)[C@@H](C)C[C@H]2[C@@H]3CCC4=CC(=O)C=C[C@]4(C)[C@@]3(F)[C@@H](O)C[C@@]21C ?
Result: False

Request: Please indicate how the test categorized Cn1cc(CNCC2CCN(c3ncc(C(=O)NO)cn3)CC2)c2ccccc21 .
Result: True

Request: Assay result, entry COc1cc(O)c2c(c1)C1OC1C[C@H](O)[C@H](O)C(=O)C=CC[C@H](C)OC2=O (some centres not stated) — outcome?
Result: True

Request: Please indicate how the test categorized C=CC(=O)Nc1ccc2ncnc(Nc3ccc(OCc4cccc(F)c4)c(Cl)c3)c2c1 .
Result: True

Request: State the result this test recorded for COc1cc([C@@H]2c3cc4c(cc3[C@H](O)[C@H]3COC(=O)[C@@H]23)OCO4)cc(OC)c1OC .
Result: False

Request: Per the records of this test, what outcome belongs to CN[C@@H]1C[C@H]2O[C@@](C)([C@H]1OC)n1c3ccccc3c3c4c(c5c6ccccc6n2c5c31)C(=O)N[C@H]4O ?
Result: True

Request: # lookup: test call for CC1(C)O[C@@H]2C[C@H]3[C@@H]4CCC5=CC(=O)C=C[C@]5(C)[C@@H]4[C@@H](O)C[C@]3(C)[C@]2(C(=O)CO)O1
Result: False

Request: Please let me know the test result on file for C[C@@H](Oc1ccc2[nH]nc(C=Cc3cnn(CCO)c3)c2c1)c1c(Cl)cncc1Cl .
Result: True

Request: Given C=CCNC1=C2C[C@@H](C)C[C@H](OC)[C@@H](O)[C@@H](C)C=C(C)[C@H](OC(N)=O)[C@@H](OC)C=CC=C(C)C(=O)NC(=CC1=O)C2=O , state the outcome it received in this test.
Result: True
